FYI, the data here is from PubChem BioAssay AID1259407.

- Tested on: CCRIS mutagenicity, Ames/micronucleus/aberration tests
- protocolNotes: CCRIS mutagenicity studies
- settings: End Point: IN VITRO CHROMOSOMAL ABERRATIONS; Test System: HUMAN PERIPHERAL LYMPHOCYTES; Metabolic Activation: NONE
The source made the active and inactive calls. No rule for the calls is given here.
API: response.call in YES for active, NO for inactive

Study these solved cases before continuing.
smilesrepresentation=C[C@]1(O)CC[C@H]2[C@@H]3CCC4=CC(=O)CC[C@]4(C)[C@@]3(F)[C@@H](O)C[C@@]21C qualitativelabel=YES
smilesrepresentation=O=[N+]([O-])c1ccc(O)c([N+](=O)[O-])c1 qualitativelabel=YES
smilesrepresentation=CC1=CC(=O)C=C2CC[C@@H]3[C@H](CC[C@]4(C)C(=O)CC[C@@H]34)[C@@]12C qualitativelabel=NO

For the next question, use this compound.
Dear colleague, could you share the recorded outcome for `CC/C(=C(/CC)c1ccc(O)cc1)c1ccc(O)cc1` when you have a moment?
NO
